Tested on: Serratia marcescens
ASSAY_TEXT: MIC against Gram-negative bacteria: Serratia marcescens
Assay type: cell-based
PROTOCOL_CONDITIONS: S. marcescens; 10 h cultivation at 37° C.
ENDPOINT_LABEL: MIC (µg/mL)
Use µg/mL as the unit, but write only the number.

Lookup: Entry PRT999 (PEDNCTCHHGHCQRSSCVCDVGWTGPECE; listed as Homo sapiens) needs its MIC filled in; supply it.
Found: 12.5

Lookup: Please supply the value of reported MIC for the item PRT1013 (LEDPCPPSFCSKRGRCHIQASGRPQCSCMPGWTGEQCQ; listed as Homo sapiens)
Found: 50

Lookup: Input PRT1008 (ELDACQSQPCHNHGTCTPKPGGFHCACPPGFVGLRCE; listed as Homo sapiens) , output reported MIC.
Found: 25

Lookup: Quote MIC reported for PRT899 (NINECASNPCLNQGTCIDDVAGYKCNCLLPYTGATCE; listed as Homo sapiens) please.
Found: 12.5

Source: patent US9833497B2
